- studyTarget: T1, human IL-33 (R&D Systems, #3625-IL-010/CF) (human, UniProt O95760 112-270)
- T1 sequence (looked up): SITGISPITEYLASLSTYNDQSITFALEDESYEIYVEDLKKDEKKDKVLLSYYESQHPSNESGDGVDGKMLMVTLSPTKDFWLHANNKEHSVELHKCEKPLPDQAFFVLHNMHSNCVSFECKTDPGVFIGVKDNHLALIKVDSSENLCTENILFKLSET
- assayInfo: cell-based or functional assay
measuredParameter: Ph-p38 MFI at 0.4 nM Ab (500 pM human IL-33, primary basophils)

- binder: "H4H9633P (antibody, IgG4, V domains shown, also called RG5) VH: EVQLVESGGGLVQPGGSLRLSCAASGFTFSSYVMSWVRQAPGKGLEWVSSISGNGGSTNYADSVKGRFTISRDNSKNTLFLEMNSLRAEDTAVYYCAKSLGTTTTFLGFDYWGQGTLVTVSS VL: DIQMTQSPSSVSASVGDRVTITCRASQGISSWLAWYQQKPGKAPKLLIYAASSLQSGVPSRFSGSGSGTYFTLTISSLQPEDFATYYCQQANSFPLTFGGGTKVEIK"
  valueReported: "149 MFI"
- binder: "H4H9629P (antibody, IgG4, V domains shown, also called RG4) VH: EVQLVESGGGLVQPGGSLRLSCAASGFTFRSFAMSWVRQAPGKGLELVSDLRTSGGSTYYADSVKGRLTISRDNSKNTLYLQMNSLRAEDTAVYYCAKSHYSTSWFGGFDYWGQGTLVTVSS VL: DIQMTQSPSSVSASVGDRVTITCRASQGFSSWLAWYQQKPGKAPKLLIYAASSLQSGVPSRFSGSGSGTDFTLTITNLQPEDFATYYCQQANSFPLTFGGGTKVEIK"
  valueReported: "67 MFI"
- binder: "10C12.38.H6.87Y.58I IgG4 (antibody, V domains shown, also called anti-IL33 10C12.38.H6.87Y.58I IgG4) VH: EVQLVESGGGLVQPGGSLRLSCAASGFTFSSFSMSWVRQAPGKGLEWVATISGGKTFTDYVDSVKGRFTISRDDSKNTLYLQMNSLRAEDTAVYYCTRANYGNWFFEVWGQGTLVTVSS VL: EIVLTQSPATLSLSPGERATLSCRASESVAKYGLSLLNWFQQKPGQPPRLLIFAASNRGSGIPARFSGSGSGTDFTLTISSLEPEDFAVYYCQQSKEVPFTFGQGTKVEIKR"
  valueReported: "34 MFI"
- binder: "H1M9568N (antibody, IgG1, V domains shown, also called RG3) VH: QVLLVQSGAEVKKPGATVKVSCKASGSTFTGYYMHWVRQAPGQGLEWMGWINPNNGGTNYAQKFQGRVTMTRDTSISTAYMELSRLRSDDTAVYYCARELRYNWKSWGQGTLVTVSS VL: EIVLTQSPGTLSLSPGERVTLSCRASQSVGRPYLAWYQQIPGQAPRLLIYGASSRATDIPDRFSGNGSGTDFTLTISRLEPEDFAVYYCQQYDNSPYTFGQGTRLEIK"
  valueReported: "88 MFI"
- binder: "H1M9559N (antibody, IgG1, V domains shown, also called RG1) VH: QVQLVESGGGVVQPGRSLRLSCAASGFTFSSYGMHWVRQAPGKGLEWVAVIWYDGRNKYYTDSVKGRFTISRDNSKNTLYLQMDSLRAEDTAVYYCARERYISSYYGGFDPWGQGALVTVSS VL: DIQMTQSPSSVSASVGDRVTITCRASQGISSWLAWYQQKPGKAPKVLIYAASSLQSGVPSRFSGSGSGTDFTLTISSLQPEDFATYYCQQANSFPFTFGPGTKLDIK"
  valueReported: "90 MFI"

Reference source: patent US20190092852A1
